test: Solubility of KDR2-2 in different media; assay type: physicochemical; conditions: methyl isobutyl ketone, organic solvent or mixture
assay endpoint: solubility

get_value(item= Nc1nccc(Oc2ccc3c(C(=O)Nc4cccc(C(F)(F)F)c4)cccc3n2)n1 [KDR2-2] , readout=solubility) returns 1800 to 2200 µg/mL

----------
test: Solubility of KDR2-2 in different media; type: physicochemical; settings: methanol, organic solvent or mixture
assay endpoint: solubility

solubility reading for Nc1nccc(Oc2ccc3c(C(=O)Nc4cccc(C(F)(F)F)c4)cccc3n2)n1 : 6300 to 9500 µg/mL

----------
experiment: Solubility of KDR2-2 in different media; format: physicochemical; settings: acetone, organic solvent or mixture
assay endpoint: solubility

In plain terms, Nc1nccc(Oc2ccc3c(C(=O)Nc4cccc(C(F)(F)F)c4)cccc3n2)n1 [KDR2-2] has a documented solubility of 7700 to 11500 µg/mL
